Please provide measured inhibition for the entries that follow.
Tested on: Helix pomatia
Measurement description: Inhibition of snail beta-mannosidase using p-nitrophenyl glycoside as substrate assessed as release of p-nitrophenol at 1000 uM by spectrometric analysis relative to control
One number for each entry, in %.

Consider the worked cases shown below.
Smiles structure: O[C@@H]1[C@@H]2[C@@H](O)C[C@@H](F)CN2C[C@@H]1O
System: Helix pomatia
inhibition [%]: 1.7
--
Smiles structure: O[C@H]1[C@H]2[C@@H](O)C[C@H](F)CN2C[C@H]1O
System: Helix pomatia
inhibition [%]: 21.7
--
Smiles structure: O[C@@H]1[C@@H]2[C@H](O)C[C@H](F)CN2C[C@@H]1O
System: Helix pomatia
inhibition [%]: 0

Each compound below has a reported value. Please supply its inhibition.
1. O[C@@H]1[C@@H]2[C@H](O)C[C@@H](F)CN2C[C@@H]1O
2. O[C@@H]1[C@@H]2[C@H](O)CCCN2C[C@@H]1O
3. O[C@H]1[C@H]2[C@@H](O)CC(F)(F)CN2C[C@H]1O
4. O[C@@H]1[C@@H]2[C@@H](O)CCCN2C[C@@H]1O
5. O[C@H]1[C@H]2[C@H](O)CC(F)(F)CN2C[C@H]1O
6. O[C@H]1[C@H]2[C@H](O)C[C@@H](F)CN2C[C@H]1O

a:
[1.7, 11.7, 0.8, 0, 40, 0]

Each compound below has a reported value. Please supply its inhibition.
1. O[C@H]1[C@H]2[C@@H](O)CCCN2C[C@H]1O
2. O[C@H]1[C@H]2[C@H](O)C[C@H](F)CN2C[C@H]1O
3. O[C@@H]1[C@@H]2[C@H](O)CC(F)(F)CN2C[C@@H]1O
4. O[C@@H]1[C@@H]2[C@@H](O)C[C@H](F)CN2C[C@@H]1O
5. O[C@H]1[C@H]2[C@H](O)CCCN2C[C@H]1O
6. O[C@@H]1[C@@H]2[C@@H](O)CC(F)(F)CN2C[C@@H]1O
7. O[C@H]1[C@H]2[C@@H](O)C[C@@H](F)CN2C[C@H]1O

a:
0
5
0
2.5
0
0
3.3

====

Please provide measured pIC50 for the entries that follow.
Measurement description: Inhibition of human liver Alpha-mannosidase
Give bare numbers, as −log10 of the molar value.

Consider the worked cases shown below.
Compound: O[C@H]1[C@H]2[C@H](O)CCCN2C[C@H]1O
pIC50: 6.55

Compound: CC(=O)NCCCC[C@H]1C[C@@H](O)[C@@H]2[C@H](O)[C@H](O)CN2C1
pIC50: 4.29

Compound: OC[C@@H]1[C@@H](O)[C@@H](O)[C@H]2[C@H](O)CCCN21
pIC50: 5.92

Compound: O[C@@H]1[C@H](O)C[S+]2CCCS[C@H]12 (some centres not stated)
pIC50: 4.01

Compound: OC[C@H](NC[C@H]1OC[C@H](O)[C@@H]1O)c1ccccc1
pIC50: 5.38

Each compound below has a reported value. Please supply its pIC50.
1. OC[C@H]1[C@@H](O)[C@@H](O)CN1Cc1ccc(I)cc1
2. OC[C@@H](O)[C@H]1NC[C@@H](O)[C@H]1O
3. OC[C@H]1[C@@H](O)[C@@H](O)CN1Cc1ccc(Br)cc1
4. O[C@H]1[C@H]2[C@@H](O)CCCN2C[C@H]1O

a:
[7.05, 5.41, 7.05, 4.29]

Each compound below has a reported value. Please supply its pIC50.
1. OC[C@H]1[C@@H](O)[C@@H](O)CN1Cc1ccccc1
2. Cc1ccc(C(=O)C[C@H]2CC[C@@H](O)[C@@H]3[C@H](O)[C@H](O)CN23)cc1
3. O=C(OC[C@H](NC[C@H]1OC[C@H](O)[C@@H]1O)c1ccccc1)c1ccc(Br)cc1

a:
1: 7.05; 2: 4.54; 3: 4.05
